Recorded inhibition at 10 µM, one value per entry.
System: HOP-92
method: NCI-60 single-dose screen
Format: cell-based
assaySetup: Homo sapiens, single dose 10 µM, '-' = no inhibition, read-out: % Growth Inhibition

Worked cases, inhibition at 10 µM given:
[in] Query (compound): "CCSc1nc(-c2ccc(Cl)cc2)cc(-c2ccc(OC)c(OC)c2)n1" ; field requested: inhibition at 10 µM
[out] 1.94%

[in] And "COc1ccc(-c2cc(-c3cccc(OC)c3)nc(SC)n2)cc1" ?
[out] 1.87%

[in] And "COc1ccc(-c2cc(-c3ccc(Cl)cc3)nc(SC(C)C)n2)cc1OC" ?
[out] < 0%

[in] And "COc1ccc(CSc2nc(-c3ccc(Cl)cc3)cc(-c3ccc(OC)cc3)n2)cc1" ?
[out] < 0%

[in] And "C=CCSc1nc(-c2ccc(OC)cc2)cc(-c2cccc(OC)c2)n1" ?
[out] < 0%

More entries:
[in] Query (compound): "CCCSc1nc(-c2ccc(Cl)cc2)cc(-c2ccc(OC)c(OC)c2)n1" ; field requested: inhibition at 10 µM
[out] < 0%

[in] And "COc1ccc(-c2cc(-c3ccc(Cl)cc3)nc(SC(C)C)n2)cc1" ?
[out] < 0%

[in] And "COc1ccc(-c2cc(-c3ccc(Cl)cc3)nc(SCc3ccccc3)n2)cc1OC" ?
[out] 0.63%

====

Test system: NCI-H460
method: NCI-60 single-dose screen
Assay type: cell-based
assaySetup: Homo sapiens, single dose 10 µM, '-' = no inhibition, read-out: % Growth Inhibition
Classification field: enter t for inhibition at 10 µM values not below 7%, f for values below it.

[in] Quick check: does "COc1ccc(-c2cc(-c3cccc(OC)c3)nc(SC)n2)cc1" have inhibition at 10 µM greater than or equal to 7%?
[out] f

More entries:
[in] Quick check: does "COc1ccc(-c2cc(-c3ccc(Cl)cc3)nc(SC)n2)cc1OC" have inhibition at 10 µM greater than or equal to 7%?
[out] t

[in] And "CCCSc1nc(-c2ccc(Cl)cc2)cc(-c2ccc(OC)c(OC)c2)n1" ?
[out] f

[in] And "CCSc1nc(-c2ccc(Cl)cc2)cc(-c2ccc(OC)c(OC)c2)n1" ?
[out] f

====

Recorded inhibition at 10 µM, one value per entry.
Test system: MDA-MB-468
method: NCI-60 single-dose screen
Type: cell-based
assaySetup: Homo sapiens, single dose 10 µM, '-' = no inhibition, read-out: % Growth Inhibition
Give your result in % as a bare value.

[in] Query (compound): "COc1ccc(-c2cc(-c3ccc(Cl)cc3)nc(SC(C)C)n2)cc1" ; field requested: inhibition at 10 µM
[out] 35.1

More entries:
[in] Query (compound): "COc1ccc(-c2cc(-c3cccc(OC)c3)nc(SC(C)C)n2)cc1" ; field requested: inhibition at 10 µM
[out] 20.2

====

Tested on: EKVX
method: NCI-60 single-dose screen
Format: cell-based
assaySetup: Homo sapiens, single dose 10 µM, '-' = no inhibition, read-out: % Growth Inhibition
Recorded inhibition at 10 µM, one value per entry.
Give your result in % as a bare value.

Worked cases, inhibition at 10 µM given:
[in] Query (compound): "COc1ccc(-c2cc(-c3ccc(Cl)cc3)nc(SC)n2)cc1OC" ; field requested: inhibition at 10 µM
[out] 23.1

[in] And "CCCSc1nc(-c2ccc(Cl)cc2)cc(-c2ccc(OC)cc2)n1" ?
[out] 6.92

[in] And "COc1ccc(-c2cc(-c3cccc(OC)c3)nc(SC(C)C)n2)cc1" ?
[out] 22.7

[in] And "COc1ccc(-c2cc(-c3ccc(Cl)cc3)nc(SC(C)C)n2)cc1OC" ?
[out] 4.59

Next compound, inhibition at 10 µM to be filled in.
[in] Query (compound): "COc1ccc(-c2cc(-c3cccc(OC)c3)nc(SC)n2)cc1" ; field requested: inhibition at 10 µM
[out] 21.7

====

Test system: LOX IMVI
method: NCI-60 single-dose screen
Type: cell-based
assaySetup: Homo sapiens, single dose 10 µM, '-' = no inhibition, read-out: % Growth Inhibition
Classification field: enter MET for inhibition at 10 µM values not below 8%, NOT MET for values below it.

Consider the worked cases shown below.
[in] Quick check: does "COc1ccc(-c2cc(-c3ccc(Cl)cc3)nc(SCc3ccccc3)n2)cc1OC" have inhibition at 10 µM greater than or equal to 8%?
[out] MET

[in] And "COc1ccc(-c2cc(-c3ccc(Cl)cc3)nc(SC)n2)cc1OC" ?
[out] MET

[in] And "COc1ccc(-c2cc(-c3ccc(Cl)cc3)nc(SC(C)C)n2)cc1" ?
[out] MET

[in] And "COc1ccc(-c2cc(-c3ccc(Cl)cc3)nc(SCc3ccccc3)n2)cc1" ?
[out] NOT MET

[in] And "CCSc1nc(-c2ccc(Cl)cc2)cc(-c2ccc(OC)c(OC)c2)n1" ?
[out] MET

[in] And "COc1ccc(-c2cc(-c3ccc(Cl)cc3)nc(SC)n2)cc1" ?
[out] MET

More entries:
[in] Quick check: does "CCCSc1nc(-c2ccc(Cl)cc2)cc(-c2ccc(OC)cc2)n1" have inhibition at 10 µM greater than or equal to 8%?
[out] NOT MET

[in] And "COc1ccc(CSc2nc(-c3ccc(Cl)cc3)cc(-c3ccc(OC)c(OC)c3)n2)cc1" ?
[out] MET

[in] And "COc1ccc(-c2cc(-c3cccc(OC)c3)nc(SC(C)C)n2)cc1" ?
[out] NOT MET

====

Test system: NCI-H522
method: NCI-60 single-dose screen
Assay type: cell-based
assaySetup: Homo sapiens, single dose 10 µM, '-' = no inhibition, read-out: % Growth Inhibition
readoutKind: inhibition at 10 µM (%)
Give your result in % as a bare value.

Worked cases, inhibition at 10 µM given:
[in] Query (molecule): "CCSc1nc(-c2ccc(Cl)cc2)cc(-c2ccc(OC)cc2)n1" ; field requested: inhibition at 10 µM
[out] 8.82

[in] And "CCCSc1nc(-c2ccc(Cl)cc2)cc(-c2ccc(OC)cc2)n1" ?
[out] 9.17

[in] And "CCSc1nc(-c2ccc(Cl)cc2)cc(-c2ccc(OC)c(OC)c2)n1" ?
[out] 2.36

[in] And "COc1ccc(CSc2nc(-c3ccc(Cl)cc3)cc(-c3ccc(OC)c(OC)c3)n2)cc1" ?
[out] 23.1

[in] And "COc1ccc(-c2cc(-c3ccc(Cl)cc3)nc(SC(C)C)n2)cc1" ?
[out] 21.6

[in] And "C=CCSc1nc(-c2ccc(OC)cc2)cc(-c2cccc(OC)c2)n1" ?
[out] 8.49

[in] And "COc1ccc(-c2cc(-c3ccc(Cl)cc3)nc(SCc3ccccc3)n2)cc1OC" ?
[out] 31.8

[in] And "C=CCSc1nc(-c2ccc(Cl)cc2)cc(-c2ccc(OC)cc2)n1" ?
[out] 10.2

More entries:
[in] Query (molecule): "CCCSc1nc(-c2ccc(Cl)cc2)cc(-c2ccc(OC)c(OC)c2)n1" ; field requested: inhibition at 10 µM
[out] 8

====

targetOfAssay: VEGFR-2 (Homo sapiens)
Sequence (P35968 20-1356): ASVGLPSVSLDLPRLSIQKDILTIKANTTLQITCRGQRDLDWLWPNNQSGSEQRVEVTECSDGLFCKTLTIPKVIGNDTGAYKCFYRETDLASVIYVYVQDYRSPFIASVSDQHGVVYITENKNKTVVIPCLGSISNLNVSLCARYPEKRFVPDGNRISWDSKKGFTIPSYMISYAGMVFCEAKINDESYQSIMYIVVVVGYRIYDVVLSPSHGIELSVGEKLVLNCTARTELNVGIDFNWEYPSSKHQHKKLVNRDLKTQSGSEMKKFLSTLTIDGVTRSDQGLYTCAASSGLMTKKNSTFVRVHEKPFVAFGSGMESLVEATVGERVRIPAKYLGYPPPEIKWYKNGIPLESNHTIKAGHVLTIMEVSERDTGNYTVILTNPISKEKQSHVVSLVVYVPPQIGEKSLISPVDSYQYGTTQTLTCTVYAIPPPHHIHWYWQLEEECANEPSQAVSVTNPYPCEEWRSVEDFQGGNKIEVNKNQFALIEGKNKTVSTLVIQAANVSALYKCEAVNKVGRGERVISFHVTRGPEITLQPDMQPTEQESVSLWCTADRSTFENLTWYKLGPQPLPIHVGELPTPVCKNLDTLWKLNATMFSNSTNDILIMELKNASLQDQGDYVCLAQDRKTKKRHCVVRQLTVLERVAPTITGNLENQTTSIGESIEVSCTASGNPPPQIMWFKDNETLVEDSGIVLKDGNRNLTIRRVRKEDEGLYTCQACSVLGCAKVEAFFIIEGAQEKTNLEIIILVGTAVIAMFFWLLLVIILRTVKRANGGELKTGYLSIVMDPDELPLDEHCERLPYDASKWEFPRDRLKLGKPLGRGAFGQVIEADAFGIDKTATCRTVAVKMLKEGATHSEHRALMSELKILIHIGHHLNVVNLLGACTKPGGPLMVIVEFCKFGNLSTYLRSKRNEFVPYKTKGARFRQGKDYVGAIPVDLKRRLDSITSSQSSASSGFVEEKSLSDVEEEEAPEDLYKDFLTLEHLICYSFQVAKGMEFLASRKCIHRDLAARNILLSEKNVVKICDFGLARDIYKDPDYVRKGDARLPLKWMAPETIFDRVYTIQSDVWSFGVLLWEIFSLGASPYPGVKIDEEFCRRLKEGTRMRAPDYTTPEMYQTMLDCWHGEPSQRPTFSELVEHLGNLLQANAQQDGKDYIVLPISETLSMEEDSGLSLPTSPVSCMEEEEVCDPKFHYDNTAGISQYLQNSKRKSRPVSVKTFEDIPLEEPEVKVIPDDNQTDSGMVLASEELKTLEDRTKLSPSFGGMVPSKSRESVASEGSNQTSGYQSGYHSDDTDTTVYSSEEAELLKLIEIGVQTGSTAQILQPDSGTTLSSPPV
method: VEGFR-2 inhibitory assay
readoutKind: pIC50
Note on pIC50: it is the negative log10 of concentration, concentration in mol/L.

Worked cases, pIC50 given:
[in] Query (molecule): "COc1ccc(-c2cc(-c3ccc(Cl)cc3)nc(SCc3ccccc3)n2)cc1" ; field requested: pIC50
[out] 8.66

[in] And "COc1ccc(-c2cc(-c3cccc(OC)c3)nc(SC(C)C)n2)cc1" ?
[out] 8.57

[in] And "COc1ccc(CSc2nc(-c3ccc(OC)cc3)cc(-c3cccc(OC)c3)n2)cc1" ?
[out] 8.94

[in] And "CCSc1nc(-c2ccc(OC)cc2)cc(-c2cccc(OC)c2)n1" ?
[out] 8.73

[in] And "CCCSc1nc(-c2ccc(Cl)cc2)cc(-c2ccc(OC)c(OC)c2)n1" ?
[out] 8.53

More entries:
[in] Query (molecule): "COc1ccc(CSc2nc(-c3ccc(Cl)cc3)cc(-c3ccc(OC)c(OC)c3)n2)cc1" ; field requested: pIC50
[out] 8.80

====

System: RPMI-8226
method: NCI-60 single-dose screen
Type: cell-based
assaySetup: Homo sapiens, single dose 10 µM, '-' = no inhibition, read-out: % Growth Inhibition
readoutKind: inhibition at 10 µM (%)
Give your result in % as a bare value.

Worked cases, inhibition at 10 µM given:
[in] Query (molecule): "C=CCSc1nc(-c2ccc(Cl)cc2)cc(-c2ccc(OC)cc2)n1" ; field requested: inhibition at 10 µM
[out] 4.91

[in] And "COc1ccc(CSc2nc(-c3ccc(Cl)cc3)cc(-c3ccc(OC)c(OC)c3)n2)cc1" ?
[out] 36.9

Next molecule, inhibition at 10 µM to be filled in.
[in] Query (molecule): "COc1ccc(-c2cc(-c3cccc(OC)c3)nc(SC(C)C)n2)cc1" ; field requested: inhibition at 10 µM
[out] 10.1
